Experimental Details: Encapsulation efficiency of lipid nanoparticles, Quant-it Ribogreen RNA assay
Type: physicochemical
Condition Info: LNP of lipid/DSPC/cholesterol/PEG-lipid 50:10:38.5:1.5 encapsulating hEPO mRNA

Compound	Encapsulation Efficiency, %
CCCCCCCCC(CCCCCCCC)COC(=O)CCCCCN(CCN(CCO)CCOCCC(=O)OCC(CCCCCCCC)CCCCCCCC)C1CCC1	93.11
CCCCCCCCC(CCCCCC)CNC(=O)CCCCCN(CCCCCO)CCN(CCCCC(COC(=O)CCCCCCC)COC(=O)CCCCCCC)C1CCCCCCC1 (stereo not drawn)	91.52
CCCCCCCCC(CCCCCCCC)COC(=O)CCCCCN(CCO)CCN(CCCCCC(=O)OCC(CCCCCCCC)CCCCCCCC)C1CCOC1 (stereo not drawn)	87.6
CCCCCCCCCCCOC(=O)CCCCCN(CCN(CCO)CCCCCNP(=O)(OCCCCCCCCC)OCCCCCCCCC)C1CCCCC1	85.49
CCCCCCCCC(CCCCCC)CNC(=O)CCN(CCO)CCN(CCCCC(COC(=O)CCCCCCC)COC(=O)CCCCCCC)C1CCCCCC1 (stereo not drawn)	87.31
CCCCCCCCC(CCCCCCCC)CNC(=O)CCCCCN(CCO)CCN(CCCCCC(=O)OCC(CCCCCCCC)CCCCCCCC)C1CCCCCC1	98.9
